# Test system: Receptor-interacting serine/threonine-protein kinase 1 (Homo sapiens), Q13546 [K45M]
# Sequence (Q13546 whole entry K45M): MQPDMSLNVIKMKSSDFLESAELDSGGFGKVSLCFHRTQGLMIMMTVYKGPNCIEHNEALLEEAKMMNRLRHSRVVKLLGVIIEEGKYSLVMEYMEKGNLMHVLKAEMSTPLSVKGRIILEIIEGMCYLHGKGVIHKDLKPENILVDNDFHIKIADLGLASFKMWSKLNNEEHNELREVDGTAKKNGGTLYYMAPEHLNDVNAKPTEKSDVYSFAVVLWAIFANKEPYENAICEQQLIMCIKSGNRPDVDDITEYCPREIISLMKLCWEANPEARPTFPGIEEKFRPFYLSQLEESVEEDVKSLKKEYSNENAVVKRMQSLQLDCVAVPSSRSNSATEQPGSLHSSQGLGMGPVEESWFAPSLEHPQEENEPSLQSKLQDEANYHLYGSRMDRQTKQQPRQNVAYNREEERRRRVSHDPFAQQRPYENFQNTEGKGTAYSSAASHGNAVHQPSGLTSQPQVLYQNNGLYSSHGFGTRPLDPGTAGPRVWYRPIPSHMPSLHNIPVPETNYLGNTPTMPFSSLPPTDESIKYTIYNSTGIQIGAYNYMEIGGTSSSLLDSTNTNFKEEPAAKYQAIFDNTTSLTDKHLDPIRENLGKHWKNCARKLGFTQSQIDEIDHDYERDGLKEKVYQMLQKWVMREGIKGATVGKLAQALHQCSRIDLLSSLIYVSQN
# ASSAY_NAME: Inhibition of human RIP1 K45M mutant autophosphorylation expressed in HEK293T cells
# Format: cell-based
# RUN_CONDITIONS: HEK-293T
Calls of active or inactive are those of the source. No cut-off for these calls is given here.
EXPERIMENTAL_ENDPOINT: inhibition

1. O=C1NC(=S)NC1Cc1c[nH]c2ccccc12 (stereo unspecified): inactive
2. CN1C(=O)C(Cc2cn(C)c3ccccc23)NC1=S (stereo unspecified): inactive
3. COc1ccc([C@H]2[C@H]3CCc4c(OC)cccc4C3=NN2C(C)=O)cc1: inactive
4. CN1C(=O)C(Cc2c[nH]c3c(Cl)cccc23)NC1=S (stereo unspecified): Active
5. N#CCSc1nc2sc3c(c2c(=O)n1-c1ccccc1)CCCC3: inactive
6. COc1ccc(-n2c(SCC#N)nc3sc4c(c3c2=O)CCCC4)cc1: Active
7. COc1ccc([C@H]2[C@H]3CCc4ccccc4C3=NN2C(C)=O)cc1: Active
8. CN1C(=O)NC(Cc2c[nH]c3ccccc23)C1=O (stereo unspecified): Active
9. CN1C(=O)C(C)(Cc2c[nH]c3ccccc23)NC1=S (stereo unspecified): inactive
10. CN1C(=O)C(Cc2c[nH]c3ccccc23)N(C)C1=S (stereo unspecified): inactive
